Origin of measurements: PubChem BioAssay AID492960

experiment: Secondary Assay for lipid storage modulators: HepG2 cell LDSA assay for probe SAR; details: HepG2 lipid droplet BODIPY, laser-scanning cytometry, 18-24 h; series mostly up to 46.1 µM
Results filed as inconclusive are left out. Activity calls are given as the source filed them. Calls come from the whole dose curve; as a rule, active = well fitted curve in the direction sought with a large enough effect; inconclusive = small, poorly fitted or top-dose-only effect, or effect the other way, or another doubt; inactive = no such curve, though single readings can be large or run the other way.
Labels: 1 (yes) = active, 0 (no) = inactive

MOLECULE	GROUP LABEL
CCOc1ccc(NC(=O)NC2(C(=O)N3CCCCC3)CCCCC2)cc1	0 (no)
CCOc1ccc(CCNC(=O)c2ccc3ccccc3n2)cc1OCC	0 (no)
CCOC(=O)C1CCN(C(=O)C2(NC(=O)Nc3ccccc3Cl)CCCCC2)CC1	0 (no)
CCOc1ccc(CCNC(=O)c2cc3sccc3n2CC)cc1OCC	1 (yes)
CC1(C)CCC(c2ccc(Cl)cc2)=C(CN2CCN(c3ccc(C(=O)NS(=O)(=O)c4ccc(N[C@H](CCN5CCOCC5)CSc5ccccc5)c(S(=O)(=O)C(F)(F)F)c4)cc3)CC2)C1	0 (no)
CCOc1ccc(CCNC(=O)c2cc3sc(CC)cc3n2C)cc1OCC	0 (no)
CCn1c(C(=O)NCCc2ccc(OC)c(OC)c2)cc2sc(Cl)cc21	0 (no)
CCOc1ccc(CCNC(=O)c2ccccn2)cc1OCC	0 (no)
CCOc1ccc(CCNC(=O)c2cc3sccc3n2Cc2ccc(OC(F)F)cc2)cc1OCC	0 (no)
O=C(NC1CCCc2c1cnn2-c1ccc(F)cc1F)c1cccs1 (centres undefined)	0 (no)
CCOc1ccc(CCNC(=O)c2cc3c(s2)CCC3)cc1OCC	0 (no)
CCOc1ccc(CCNC(=O)c2cc3sccc3n2Cc2cccc(C)c2)cc1OCC	0 (no)
COc1ccc(-c2cnc(SCC(=O)Nc3nc(C)cs3)n2-c2ccccc2)cc1	0 (no)
CCn1c(C(=O)NCCc2ccc(OC)c(OC)c2)cc2sccc21	0 (no)
O=C(NC1CCCc2c1cnn2-c1ccc(F)cc1F)c1ccc(C2(C(F)(F)F)N=N2)cc1 (centres undefined)	0 (no)
O=C(NC1CCCc2c1cnn2-c1ccc(F)cc1F)c1ccc2cc[nH]c2c1 (centres undefined)	0 (no)
CCOc1ccc(CCNC(=O)c2cc3sccc3n2Cc2ccccc2)cc1OCC	1 (yes)
O=C(NC1CCCc2c1cnn2-c1ccc(F)cc1F)C1CCCCN1 (centres undefined)	0 (no)
COc1nc(-c2ccc3c(c2)OCO3)n(-c2ccc(NC(=O)CSc3ccccc3)cc2)n1	0 (no)
CCOc1ccc(CCNC(=O)C2=C(C)OCCO2)cc1OCC	0 (no)
O=C(NC1CCCc2c1cnn2-c1cc(F)cc(F)c1)c1cccc2nccnc12 (centres undefined)	0 (no)
Cc1ccc(-c2cnc(SCC(=O)Nc3nccs3)n2Cc2ccco2)cc1	0 (no)
O=C(Cc1ccccc1)NC1CCCc2c1cnn2-c1ccc(F)cc1F (centres undefined)	0 (no)
COc1ccc(-c2cnc(SCC(=O)Nc3nccs3)n2Cc2ccccc2)cc1	0 (no)
CCOc1ccc(CCNC(=O)c2cc3sccc3n2Cc2cccnc2)cc1OCC	0 (no)
O=C(NC1CCCc2c1cnn2-c1ccc(F)cc1F)c1ccccn1 (centres undefined)	0 (no)
Cc1ccc(-c2cnc(SCC(=O)Nc3nc(C)cs3)n2Cc2ccco2)cc1	0 (no)
CCCn1c(-c2ccc(OC)cc2)cnc1SCC(=O)Nc1nc(C)c(C)s1	0 (no)
CCOC(=O)C1CCN(C(=O)CNC(=O)Nc2ccccc2Cl)CC1	0 (no)
